TESTED_TARGET: Sodium-dependent serotonin transporter (Homo sapiens, UniProt P31645)
Sequence (P31645 whole entry): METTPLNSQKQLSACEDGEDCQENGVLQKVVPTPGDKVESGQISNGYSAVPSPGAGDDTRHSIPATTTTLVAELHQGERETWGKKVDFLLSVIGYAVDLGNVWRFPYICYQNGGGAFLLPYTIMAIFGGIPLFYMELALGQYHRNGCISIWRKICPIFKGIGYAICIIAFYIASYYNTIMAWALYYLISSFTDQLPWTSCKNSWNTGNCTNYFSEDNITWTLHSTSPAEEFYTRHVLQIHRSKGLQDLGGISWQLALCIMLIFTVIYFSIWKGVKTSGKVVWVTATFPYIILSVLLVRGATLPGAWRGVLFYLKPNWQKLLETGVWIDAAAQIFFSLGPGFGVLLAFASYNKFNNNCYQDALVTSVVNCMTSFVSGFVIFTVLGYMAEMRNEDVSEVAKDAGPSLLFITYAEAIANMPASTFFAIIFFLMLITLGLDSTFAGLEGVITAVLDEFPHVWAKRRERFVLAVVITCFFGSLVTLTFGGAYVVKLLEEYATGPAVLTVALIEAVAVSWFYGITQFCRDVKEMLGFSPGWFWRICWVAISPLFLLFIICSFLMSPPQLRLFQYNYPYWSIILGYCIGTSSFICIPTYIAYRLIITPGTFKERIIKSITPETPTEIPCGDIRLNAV
METHOD_NOTES: Inhibition of serotonin reuptake at SERT expressed in HEK293 cells
Examples of compounds with documented pIC50 follow.
// pIC50: -log10(molar conc.)

Known results for compounds:
>  <SMILES_DATA>
CN1C[C@@H]2CCCC[C@]2(c2cccc3ccccc23)C1

>  <pIC50>
6.01

$$$$
>  <SMILES_DATA>
Clc1ccc(C[C@]23CCCC[C@H]2CNC3)cc1Cl

>  <pIC50>
6.18

$$$$

Task item: What does the record list as pIC50 for Clc1ccc([C@@]23CCC[C@@H]2CNC3)cc1Cl ?
Reply: 7.31
